These entries and their values trace back to ChEMBL document CHEMBL4190376.

Assay: physchem
Settings: aqueous
property_measured: solubility (µg/mL)
Record the value in µg/mL, omitting the unit from your answer.

If you can, please state the reported solubility value of CCC[C@H](NC(=O)[C@@H]1[C@H]2CCC[C@H]2CN1C(=O)[C@@H](NC(=O)[C@@H](NC(=O)c1cnccn1)C1CCCCC1)C(C)(C)C)C(=O)C(=O)NC1CC1 .
4.7

----------
Assay: Ratio of drug level in rat liver to plasma
Type: ADME
property_measured: Kp
Give the figure only, with no unit attached.

Looking for the measured Kp of COC(=O)N[C@H](C(=O)N1CCC[C@H]1c1nc(-c2ccc(-c3ccc(-c4c[nH]c([C@@H]5CCCN5C(=O)[C@@H](NC(=O)OC)C(C)C)n4)cc3)cc2)c[nH]1)C(C)C , can you help?
5

----------
Experiment: Solubility of the compound in FaSSIF
Assay type: physicochemical
property_measured: solubility (µg/mL)
I only need the number, in µg/mL, no unit after it.

Quick one: solubility of CC1(C)CCC(CN2CCN(c3ccc(C(=O)NS(=O)(=O)c4ccc(NCC5CCOCC5)c([N+](=O)[O-])c4)c(Oc4cnc5[nH]ccc5c4)c3)CC2)=C(c2ccc(Cl)cc2)C1 [VENETOCLAX] ?
11
